Tested on: TTR mRNA
Assay: TTR mRNA knockdown (quantitative PCR) in primary human hepatocytes treated with LNPs
Format: cell-based
Conditions: PHH; LNP dose 300 ng mRNA cargo; gRNA:mRNA 1:2; 96 h; biological triplicates; vs untreated control
Strand notation (5' to 3'): a small letter for the sugar, then the base; units joined by * are phosphorothioate-linked, units joined directly phosphodiester-linked; [ ] holds rarer units or linkages, { } end groups; capitals alone tell only the bases. m = 2'-O-methyl; r = 2'-OH (RNA)
Examples of molecules with documented Avg % Knockdown (TTR mRNA) follow.
Entry format: amount then unit.

- MOLECULE: "G000488: TTR sgRNA modified sequence, Human, SEQ ID NO: 95; guide sequence of CR003346 (nucleic acid) guide: mA*mA*mA*rGrUrUrCrUrArGrArUrGrCrUrGrUrCrCrGrGrUrUrUrUrArGrAmGmCmUmAmGmAmAmAmUmAmGmCrArArGrUrUrArArArArUrArArGrGrCrUrArGrUrCrCrGrUrUrArUrCrAmAmCmUmUmGmAmAmAmAmAmGmUmGmGmCmAmCmCmGmAmGmUmCmGmGmUmGmCmU*mU*mU*mU"
  Avg % Knockdown (TTR mRNA): "92.77%"

Below: the item to evaluate.
Provide one value: measured Avg % Knockdown (TTR mRNA) of G000570: TTR sgRNA modified sequence, Human, SEQ ID NO: 111; guide sequence of CR003347 (nucleic acid) guide: mC*mA*mU*rUrGrArUrGrGrCrArGrGrArCrUrGrCrCrUrGrUrUrUrUrArGrAmGmCmUmAmGmAmAmAmUmAmGmCrArArGrUrUrArArArArUrArArGrGrCrUrArGrUrCrCrGrUrUrArUrCrAmAmCmUmUmGmAmAmAmAmAmGmUmGmGmCmAmCmCmGmAmGmUmCmGmGmUmGmCmU*mU*mU*mU 93.38%
